Test: Metabolic stability in vitro, human liver microsomes (calculation of Fmax)
Type: in vitro ADME
Settings: maximal oral bioavailability calculated from microsomal half-life, 1 μM
# Human liver microsomes; Fmax [%] per entry
Field format: number, assumed %, no unit text.

* COc1cc(N2CCOC2=O)ccc1Nc1nc2ccc(-c3ccc(NC(=O)[C@H](C)c4ccc(F)cc4)cc3)cn2n1 | 49

# ---- query molecule ----
Reported Human liver microsomes; Fmax [%], molecule `CCOc1cc(S(C)(=O)=O)ccc1Nc1nc2ccc(-c3ccc(NC(=O)[C@H](C)c4ccc(F)cc4)cc3)cn2n1` : ____ 68

* * *

Assay: Metabolic stability in vitro, dog liver microsomes (calculation of Fmax)
Type: in vitro ADME
Settings: maximal oral bioavailability calculated from microsomal half-life, 1 μM
# Dog liver microsomes; Fmax [%] per entry
Field format: number, assumed %, no unit text.

- COc1cc(C(=O)N2CCC2)ccc1Nc1nc2ccc(-c3ccc(NC(=O)[C@H](C)c4ccc(F)cc4)cc3)cn2n1: 75
- COc1cc(S(C)(=O)=O)ccc1Nc1nc2ccc(-c3ccc(NC(=O)Cc4ccc(F)cc4)cc3)cn2n1 [reference compound]: 10
- COc1cc(S(C)(=O)=O)ccc1Nc1nc2ccc(-c3ccc(NC(=O)[C@H](C)c4ccc(F)cc4)cc3)cn2n1: 64
- COc1cc(C(=O)N2CC(F)C2)ccc1Nc1nc2ccc(-c3ccc(NC(=O)[C@H](C)c4ccc(F)cc4)cc3)cn2n1: 86
- N#Cc1c(F)cccc1Nc1nc2ccc(-c3ccc(NC(=O)Cc4ccc(F)cc4)cc3)cn2n1 [reference compound]: 15
- COc1cc(C(=O)NCC(F)(F)F)ccc1Nc1nc2ccc(-c3ccc(NC(=O)[C@H](C)c4ccc(F)cc4)cc3)cn2n1: 94
- C[C@@H](C(=O)Nc1ccc(-c2ccc3nc(Nc4ccc(C(N)=O)cc4OCC(F)(F)F)nn3c2)cc1)c1ccc(F)cc1: 81
- COc1cc(N2CCOC2=O)ccc1Nc1nc2ccc(-c3ccc(NC(=O)[C@H](C)c4ccc(F)cc4)cc3)cn2n1: 48

Reported Dog liver microsomes; Fmax [%], compound `CCOc1cc(S(C)(=O)=O)ccc1Nc1nc2ccc(-c3ccc(NC(=O)[C@H](C)c4ccc(F)cc4)cc3)cn2n1` : ____ 73

Same question for `C[C@@H](C(=O)Nc1ccc(-c2ccc3nc(Nc4ccc(S(C)(=O)=O)cc4OCC(F)(F)F)nn3c2)cc1)c1ccc(F)cc1` please. 55

* * *

Molecular target: human kinase Mps-1 (Homo sapiens (Human))
Sequence (P33981 whole entry): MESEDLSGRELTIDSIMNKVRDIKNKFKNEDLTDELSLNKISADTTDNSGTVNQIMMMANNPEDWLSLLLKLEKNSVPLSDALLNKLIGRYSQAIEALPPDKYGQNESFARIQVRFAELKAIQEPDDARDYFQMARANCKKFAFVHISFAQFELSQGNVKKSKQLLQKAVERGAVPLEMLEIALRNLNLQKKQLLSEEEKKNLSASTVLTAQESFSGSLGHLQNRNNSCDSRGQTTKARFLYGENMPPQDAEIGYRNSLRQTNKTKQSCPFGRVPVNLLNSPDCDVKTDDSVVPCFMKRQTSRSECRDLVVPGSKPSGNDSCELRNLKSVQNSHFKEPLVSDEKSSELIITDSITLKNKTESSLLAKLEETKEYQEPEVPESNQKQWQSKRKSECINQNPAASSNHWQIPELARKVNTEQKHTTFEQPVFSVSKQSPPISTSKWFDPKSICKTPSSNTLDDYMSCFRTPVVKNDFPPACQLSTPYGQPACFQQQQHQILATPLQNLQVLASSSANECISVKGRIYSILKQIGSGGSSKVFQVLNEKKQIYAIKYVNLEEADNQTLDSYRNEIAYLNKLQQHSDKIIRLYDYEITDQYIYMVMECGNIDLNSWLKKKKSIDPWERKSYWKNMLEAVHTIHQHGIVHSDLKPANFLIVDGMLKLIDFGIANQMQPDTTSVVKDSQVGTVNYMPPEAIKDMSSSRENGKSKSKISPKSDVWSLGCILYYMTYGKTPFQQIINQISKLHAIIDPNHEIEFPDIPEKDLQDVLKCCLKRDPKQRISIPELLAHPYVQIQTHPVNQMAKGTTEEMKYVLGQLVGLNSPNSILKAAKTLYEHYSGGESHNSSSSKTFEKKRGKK
Assay: Mps-1 kinase assay (TR-FRET)
Format: biochemical
Details: 2 mM ATP
Field: label. Allowed values: true (1) (IC50 < 2 nM) or false (0) (IC50 >= 2 nM).

Take a look at these entries with their results.
- COc1cc(N2CCOC2=O)ccc1Nc1nc2ccc(-c3ccc(NC(=O)[C@H](N)c4ccc(F)cc4)cc3)cn2n1: true (1)
- COc1cc(S(C)(=O)=O)ccc1Nc1nc2ccc(-c3ccc(NC(=O)[C@H](N)c4ccc(F)cc4)cc3)cn2n1: false (0)
- CS(=O)(=O)c1ccc(Nc2nc3ccc(-c4ccc(NC(=O)C(CO)c5ccc(F)cc5)cc4)cn3n2)c(OCC(F)(F)F)c1 (single isomer, unassigned): true (1)
- C[C@@H](C(=O)Nc1ccc(-c2ccc3nc(Nc4ccc(C(=O)N5CCCC5)cc4OCC(F)(F)F)nn3c2)cc1)c1ccc(F)cc1: true (1)
- COc1cc(S(C)(=O)=O)ccc1Nc1nc2ccc(-c3ccc(NC(=O)[C@H](CO)c4ccc(F)cc4)cc3)cn2n1: false (0)

Threshold test, IC50 < 2 nM: `C[C@@H](C(=O)Nc1ccc(-c2ccc3nc(Nc4ccc(C(N)=O)cc4OCC(F)(F)F)nn3c2)cc1)c1ccc(F)cc1` true (1)

Same question for `COc1cc(C(N)=O)ccc1Nc1nc2ccc(-c3ccc(NC(=O)[C@H](C)c4ccc(F)cc4)cc3)cn2n1` please. true (1)

* * *

# Human liver microsomes; Fmax [%] per entry
Assay: Metabolic stability in vitro, human liver microsomes (calculation of Fmax)
Assay type: in vitro ADME
Conditions: maximal oral bioavailability calculated from microsomal half-life, 1 μM
Field format: number, assumed %, no unit text.

Answered examples (2):
• COc1cc(S(C)(=O)=O)ccc1Nc1nc2ccc(-c3ccc(NC(=O)[C@H](N)c4ccc(F)cc4)cc3)cn2n1 [Example01.11] = 76
• COc1cc(C(=O)N2CCC2)ccc1Nc1nc2ccc(-c3ccc(NC(=O)[C@H](C)c4ccc(F)cc4)cc3)cn2n1 [Example01.08] = 62

# ---- query molecule ----
Reported Human liver microsomes; Fmax [%], molecule COc1cc(S(C)(=O)=O)ccc1Nc1nc2ccc(-c3ccc(NC(=O)[C@H](C)c4ccc(F)cc4)cc3)cn2n1 [Example 01.01] : ____ 92

* * *

Assay: Metabolic stability in vitro, dog liver microsomes (calculation of Fmax)
Assay type: in vitro ADME
Settings: maximal oral bioavailability calculated from microsomal half-life, 1 μM
Procedure: The metabolic stability of test compounds in vitro was determined by incubating them at 1 μM with a suspension liver microsomes in 100 mM phosphate buffer, pH7.4 (NaH2PO4×H2O+Na2HPO4×2H2O) at a protein concentration of 0.5 mg/mL and at 37° C. […] Samples were frozen at −20° C. over night, subsequently centrifuged for 15 minutes at 3000 rpm and the supernatant was analyzed with an Agilent 1200 HPLC-system with LCMS/MS detection. […]
# Dog liver microsomes; Fmax [%] per entry
Field format: number, assumed %, no unit text.

• CS(=O)(=O)c1ccc(Nc2nc3ccc(-c4ccc(NC(=O)Cc5ccc(F)cc5)cc4)cn3n2)c(OCC(F)(F)F)c1 [reference compound] = 25
• CCOc1cc(S(C)(=O)=O)ccc1Nc1nc2ccc(-c3ccc(C(=O)NCc4ccc(F)cc4)c(C)c3)cn2n1 [reference compound] = 12

Reported Dog liver microsomes; Fmax [%], molecule COc1cc(N2CCOC2=O)ccc1Nc1nc2ccc(-c3ccc(NC(=O)Cc4ccc(F)cc4)cc3)cn2n1 [reference compound] : ____ 17

Same question for `COc1cc(C(N)=O)ccc1Nc1nc2ccc(-c3ccc(NC(=O)[C@H](C)c4ccc(F)cc4)cc3)cn2n1` please. 89

Same question for `COc1cc(S(C)(=O)=O)ccc1Nc1nc2ccc(-c3ccc(NC(=O)[C@H](N)c4ccc(F)cc4)cc3)cn2n1` please. 75

Same question for COc1cc(C(=O)NCC(F)(F)F)ccc1Nc1nc2ccc(-c3ccc(NC(=O)Cc4ccc(F)cc4)cc3)cn2n1 [reference compound] please. 40

* * *

Test: Metabolic stability in vitro, human liver microsomes (calculation of Fmax)
Type: in vitro ADME
Conditions: maximal oral bioavailability calculated from microsomal half-life, 1 μM
MEASUREMENT TYPE: Human liver microsomes; Fmax [%]

- COc1cc(C(=O)N2CC(F)C2)ccc1Nc1nc2ccc(-c3ccc(NC(=O)[C@H](C)c4ccc(F)cc4)cc3)cn2n1: >95%
- CS(=O)(=O)c1ccc(Nc2nc3ccc(-c4ccc(NC(=O)C(CO)c5ccc(F)cc5)cc4)cn3n2)c(OCC(F)(F)F)c1 (single isomer, unassigned): >95%

# ---- query compound ----
Reported Human liver microsomes; Fmax [%], compound `C[C@@H](C(=O)Nc1ccc(-c2ccc3nc(Nc4ccc(S(C)(=O)=O)cc4OCC(F)(F)F)nn3c2)cc1)c1ccc(F)cc1` : ____ >95%

* * *

Assay: Metabolic stability in vitro, rat liver microsomes (calculation of Fmax)
Format: in vitro ADME
Conditions: maximal oral bioavailability calculated from microsomal half-life, 1 μM
# Rat liver microsomes; Fmax [%] per entry
Field format: number, assumed %, no unit text.

Answered examples (5):
• N#Cc1ccccc1Nc1nc2ccc(-c3ccc(NC(=O)Cc4ccc(F)cc4)cc3)cn2n1 [reference compound] = 40
• COc1cc(C(=O)NCC(F)(F)F)ccc1Nc1nc2ccc(-c3ccc(NC(=O)[C@H](C)c4ccc(F)cc4)cc3)cn2n1 [Example 01.04] = 87
• COc1cc(S(C)(=O)=O)ccc1Nc1nc2ccc(-c3ccc(NC(=O)[C@H](C)c4ccc(F)cc4)cc3)cn2n1 [Example 01.01] = 92
• COC(C(=O)Nc1ccc(-c2ccc3nc(Nc4ccccc4C#N)nn3c2)cc1)c1ccccc1 (stereo not shown) [reference compound] = 19
• COc1cc(C(=O)N2CC(F)C2)ccc1Nc1nc2ccc(-c3ccc(NC(=O)[C@H](C)c4ccc(F)cc4)cc3)cn2n1 [Example 01.07] = 83

# ---- query compound ----
Reported Rat liver microsomes; Fmax [%], compound C[C@@H](C(=O)Nc1ccc(-c2ccc3nc(Nc4ccc(S(C)(=O)=O)cc4OCC(F)(F)F)nn3c2)cc1)c1ccc(F)cc1 [Example 01.03] : ____ 93
